Reported TGI values are given for each entry in this list.
- Tested on: OVCAR-8 ovarian
- ASSAY: NCI tumour cell line growth inhibition, 48 h
MEASURE_NAME: TGI

| MOLECULE | TEST_SYSTEM | MEAS_VALUE |
| --- | --- | --- |
| CN1Cc2cc3cc4c(cc3nc2N(C)C1)OCCO4 | OVCAR-8 ovarian | > 100 µM |
| CN(CCNC(=O)c1nn(-c2ccccc2)c2c1Cc1ccccc1-2)CCNC(=O)c1nn(-c2ccccc2)c2c1Cc1ccccc1-2 | OVCAR-8 ovarian | 3.17 µM |
| CC12O[C@]3([C@H](C(=O)N4CCOC43C)[C@H]1Cl)[C@H]1O[C@H]12 (stereo not given in full) | OVCAR-8 ovarian | > 100 µM |
| O=C(NCCCCNc1cccccc1=O)OCc1ccccc1 | OVCAR-8 ovarian | > 100 µM |
| CN(C)c1ccc(/C=C/C(=O)CC(=O)/C=C/c2ccc(N(C)C)cc2)cc1 | OVCAR-8 ovarian | > 100 µM |
| Clc1nc(Cl)c2ncn(CC3(Cn4cnc5c(Cl)nc(Cl)nc54)COC3)c2n1 | OVCAR-8 ovarian | 0.532 µM |
| O=[N+]([O-])c1ccc(C[P+](c2ccccc2)(c2ccccc2)c2ccccc2)cc1 | OVCAR-8 ovarian | > 100 µM |
| C/C(=N\NC(=S)N1CC2CCC(CC2)C1)c1nccs1 | OVCAR-8 ovarian | 13.1 µM |
| CCc1cccc(C(C)(C)C)c1NC(=S)N/C=C(/C#N)C(N)=O | OVCAR-8 ovarian | > 100 µM |
| CS(=O)(=O)OC1CCC2(C#N)CCC1C2=O (stereo not given) | OVCAR-8 ovarian | > 100 µM |
| Cc1cc(CC(=O)NCCO)n(CCO)c(=O)c1 | OVCAR-8 ovarian | > 100 µM |
| COc1cccc(N2CCN(CC(=O)N3CCN(c4nnc(-c5ccc(Cl)cc5)c(-c5ccc(Cl)cc5)n4)CC3)CC2)c1 | OVCAR-8 ovarian | > 100 µM |
| CC(=O)N1C(OC(C)C)CC(C)N1c1ccccc1 (stereo not given) | OVCAR-8 ovarian | > 10 µM |
| CCN(CC)CCNc1ccc2nnn3c4ccc(C)cc4c(=O)c1c23 | OVCAR-8 ovarian | 20.9 µM |
| CC(=O)OCCCC(NC(=O)OC(C)(C)C)C(=O)NC(CCCOC(C)=O)C(=O)NC(Cc1ccc([N+](=O)[O-])cc1)C(=O)NCC(=O)OCc1ccccc1 (stereo not given) | OVCAR-8 ovarian | 31 µM |
| C[C@]12CC[C@@H]3c4ccc(O)cc4CC[C@H]3[C@@H]1CC[C@@H]2OP(=O)(O)O | OVCAR-8 ovarian | > 100 µM |
| Cc1cc2c(cc1Cl)SC(NNC(=O)c1ccco1)=NS2(=O)=O | OVCAR-8 ovarian | > 10 µM |
| CCOC(=O)NC(Nc1ncccn1)(C(=O)OCC)C(F)(F)F (stereo not given) | OVCAR-8 ovarian | > 100 µM |
| CCCCCC(C/C=N/N(C)C)C(O)(C(F)(F)F)C(F)(F)F (stereo not given) | OVCAR-8 ovarian | > 100 µM |
| O=C(NNC(=S)Nc1ccccc1)c1cc(-c2ccccc2)nc2ccccc12 | OVCAR-8 ovarian | 57.6 µM |
| COC(=O)C1=C(C)C(=O)[C@]23C(CCCC[C@H]12)C(=O)[C@H](C(=O)OC)C3C (stereo not given in full) | OVCAR-8 ovarian | > 100 µM |
| c1ccc(-c2nnc(-c3ccccn3)c3c2C[C@@H]2C[C@@H]4Cc5c(-c6ccccn6)nnc(-c6ccccn6)c5[C@@H]4[C@H]32)nc1 | OVCAR-8 ovarian | > 100 µM |
| CC1=NN(c2cccc(Cl)c2)C(=N/c2nc3ccccc3s2)/C1=C\c1ccc(Cl)cc1 | OVCAR-8 ovarian | 39.8 µM |
| Cc1c2ccncc2c(C)c2c1[nH]c1ccc(OC(C)C)cc12 | OVCAR-8 ovarian | 2.28 µM |
| [N-]=[N+]=NC(CCl)c1cn([C@H]2C[C@H](O)[C@@H](CO)O2)c(=O)[nH]c1=O (stereo not given in full) | OVCAR-8 ovarian | > 100 µM |
